Catalogue of IC50 readings, one per entry.
# tgt: various mutants of kinase EGFR (BaF3 cell lines stably transfected with kinase) (Homo sapiens, UniProt P00533, T790M/C797S, form not given)
# Construct: other: BaF3 cells stably transfected with EGFR Δ19Del/T790M/C797S; MTS, 48; other: BaF3 cell line stably transfected with EGFR Δ19Del/T790M/C7
# Sequence (P00533 with tags, fused parts or gaps DEL746-750/T790M/C797S, form open): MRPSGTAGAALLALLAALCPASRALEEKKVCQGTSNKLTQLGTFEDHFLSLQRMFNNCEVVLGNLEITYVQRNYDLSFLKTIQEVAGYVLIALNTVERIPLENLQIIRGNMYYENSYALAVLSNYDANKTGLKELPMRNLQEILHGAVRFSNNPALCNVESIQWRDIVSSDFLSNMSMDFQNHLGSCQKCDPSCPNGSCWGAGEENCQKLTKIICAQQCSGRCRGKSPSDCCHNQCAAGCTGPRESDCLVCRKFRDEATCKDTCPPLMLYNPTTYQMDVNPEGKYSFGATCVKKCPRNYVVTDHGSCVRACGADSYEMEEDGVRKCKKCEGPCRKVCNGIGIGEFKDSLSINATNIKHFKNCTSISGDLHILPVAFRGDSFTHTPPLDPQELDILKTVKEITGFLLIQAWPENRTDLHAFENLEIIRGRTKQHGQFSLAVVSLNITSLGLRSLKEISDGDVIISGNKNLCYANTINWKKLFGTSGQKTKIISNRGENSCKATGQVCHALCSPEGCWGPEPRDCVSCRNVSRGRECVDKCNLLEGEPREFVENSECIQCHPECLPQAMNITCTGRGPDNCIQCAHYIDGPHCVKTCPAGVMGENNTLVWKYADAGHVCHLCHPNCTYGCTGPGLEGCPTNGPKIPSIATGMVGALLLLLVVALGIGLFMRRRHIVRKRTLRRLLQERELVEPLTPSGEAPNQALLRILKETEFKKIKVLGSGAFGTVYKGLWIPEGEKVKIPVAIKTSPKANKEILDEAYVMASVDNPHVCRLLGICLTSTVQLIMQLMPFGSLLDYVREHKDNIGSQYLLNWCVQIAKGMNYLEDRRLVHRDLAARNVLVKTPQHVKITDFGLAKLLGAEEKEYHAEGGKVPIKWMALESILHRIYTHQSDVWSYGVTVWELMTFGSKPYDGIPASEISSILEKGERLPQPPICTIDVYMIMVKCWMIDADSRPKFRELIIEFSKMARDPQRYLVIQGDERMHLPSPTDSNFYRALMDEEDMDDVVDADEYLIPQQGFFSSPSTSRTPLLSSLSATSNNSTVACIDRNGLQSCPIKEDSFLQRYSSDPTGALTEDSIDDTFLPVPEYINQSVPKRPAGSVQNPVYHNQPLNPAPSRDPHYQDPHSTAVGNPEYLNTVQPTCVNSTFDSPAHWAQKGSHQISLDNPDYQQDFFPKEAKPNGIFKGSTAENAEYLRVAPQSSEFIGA
# procedure_text: Growth inhibitory activity of compounds on BaF3 cell lines stably transfected with kinase (MTS, 48 h)
# Assay type: cell-based
# test_settings: BaF3 cell line stably transfected with EGFR Δ19Del/T790M/C797S, read-out: Δ19Del/T790M/ C797S growth inhibitory activity IC50

Guide cases for IC50, answers given:
compound: COc1cc(N2CCC(N(C)C)C2)c(C)cc1Nc1ncc(Br)c(Nc2ccc3nccnc3c2N(C2CC2)S(C)(=O)=O)n1 (stereo not shown) [Compound I-312]
observed: ≤ 50 nM
--
compound: CCc1cnc(Nc2cc(F)c(N3CCC(N4CCN(C)CC4)CC3)c(F)c2)nc1Nc1ccc2nccnc2c1N(C)S(C)(=O)=O [Compound I-349]
observed: ≤ 50 nM

IC50 lookup needed for CN(c1c(Nc2nc(Nc3cccc(N4CCC(N5CCCC5)CC4)c3)ncc2Br)ccc2nccnc12)S(C)(=O)=O [Compound I-381] , thanks. 50 to 500 nM

* * *

The following compounds are shown together with reported pIC50 values.
# tgt: various mutants of kinase EGFR (BaF3 cell lines stably transfected with kinase) (Homo sapiens, UniProt P00533, T790M, form not given)
# Construct: other: BaF3 cells stably transfected with EGFR Δ19Del/T790M; MTS, 48 h; other: BaF3 cell line stably transfected with EGFR Δ19Del/T790M; MTS, 48
# Sequence (P00533 with tags, fused parts or gaps DEL746-750/T790M, form open): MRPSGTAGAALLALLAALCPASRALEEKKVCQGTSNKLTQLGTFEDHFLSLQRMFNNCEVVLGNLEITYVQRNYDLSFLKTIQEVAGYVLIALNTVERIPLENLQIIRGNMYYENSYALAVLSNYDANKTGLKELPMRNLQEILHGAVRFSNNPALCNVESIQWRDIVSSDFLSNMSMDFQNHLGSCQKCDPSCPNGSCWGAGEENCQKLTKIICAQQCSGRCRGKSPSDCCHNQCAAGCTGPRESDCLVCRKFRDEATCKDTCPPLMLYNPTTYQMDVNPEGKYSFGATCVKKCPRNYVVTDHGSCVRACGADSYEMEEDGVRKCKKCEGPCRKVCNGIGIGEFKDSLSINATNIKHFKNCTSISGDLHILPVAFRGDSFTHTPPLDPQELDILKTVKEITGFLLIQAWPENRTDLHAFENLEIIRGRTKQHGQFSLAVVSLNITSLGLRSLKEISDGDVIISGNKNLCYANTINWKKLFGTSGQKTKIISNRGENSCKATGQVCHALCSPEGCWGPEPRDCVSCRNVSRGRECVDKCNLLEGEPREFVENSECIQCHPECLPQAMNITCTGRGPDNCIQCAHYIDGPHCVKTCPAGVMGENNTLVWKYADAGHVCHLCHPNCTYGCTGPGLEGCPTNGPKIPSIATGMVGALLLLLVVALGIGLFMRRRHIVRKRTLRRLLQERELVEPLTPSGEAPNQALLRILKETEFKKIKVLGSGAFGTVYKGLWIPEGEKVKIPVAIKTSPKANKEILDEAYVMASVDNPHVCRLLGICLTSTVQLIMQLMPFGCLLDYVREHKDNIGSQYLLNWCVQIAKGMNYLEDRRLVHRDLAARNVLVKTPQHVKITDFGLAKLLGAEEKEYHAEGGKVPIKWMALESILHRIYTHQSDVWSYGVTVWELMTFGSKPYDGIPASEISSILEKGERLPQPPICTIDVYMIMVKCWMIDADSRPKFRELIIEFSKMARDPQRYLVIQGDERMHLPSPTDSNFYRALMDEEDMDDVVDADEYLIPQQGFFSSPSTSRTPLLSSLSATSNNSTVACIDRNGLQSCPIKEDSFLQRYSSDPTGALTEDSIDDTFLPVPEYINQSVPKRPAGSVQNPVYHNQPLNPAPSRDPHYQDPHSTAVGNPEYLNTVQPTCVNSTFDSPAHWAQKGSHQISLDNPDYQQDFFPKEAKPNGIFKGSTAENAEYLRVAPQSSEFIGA
# procedure_text: Growth inhibitory activity of compounds on BaF3 cell lines stably transfected with kinase (MTS, 48 h)
# Type: cell-based
# test_settings: BaF3 cells stably transfected with EGFR Δ19Del/T790M, read-out: IC50, growth inhibition, Δ19Del/T790M
pIC50: −log10 of the molar value.

Please review the following examples before continuing.
compound: COc1cc(N2CCC(N3CCN(C)CC3)CC2)ccc1Nc1ncc(Cl)c(Nc2ccc3nccnc3c2N(C)S(=O)(=O)C(F)(F)F)n1 [Compound I-261]
observed: 6.30 to 7.30
--
compound: COc1cc(N2CCC(N3CCN(C)CC3)CC2)c(CC2CC2)cc1Nc1ncc(Cl)c(Nc2ccc3nccnc3c2N(C)S(=O)(=O)C2CC2)n1 [Compound I-238]
observed: 6.30 to 7.30
--
compound: CCc1cc(Nc2ncc(Br)c(Nc3ccc4nccnc4c3N(C)S(C)(=O)=O)n2)c(OC)cc1N1CCN(C)CC1 [Compound I-15]
observed: ≥ 7.30
--
compound: CCN(c1c(Nc2nc(Nc3cc(C)c(N4CCC(N5CCN(C)CC5)CC4)nc3OC)ncc2Br)ccc2nccnc12)S(C)(=O)=O [Compound I-297]
observed: 6.30 to 7.30
--
compound: COc1cc(N2CCC(N(C)C)C2)c(C)cc1Nc1ncc(Cl)c(Nc2ccc3nccnc3c2N(C)S(C)(=O)=O)n1 (stereo not shown) [Compound I-173]
observed: ≥ 7.30

# pIC50 lookup, item CN1CCc2cc(F)c(Nc3ncc(Br)c(Nc4ccc5nccnc5c4N(C)S(C)(=O)=O)n3)cc2C1 [Compound I-87] 6.30 to 7.30

Endpoint output: pIC50 of COc1cc(N2CCC(N3CCN(C)CC3)CC2)c(CC2CC2)cc1Nc1ncc(Br)c(Nc2ccc3nccnc3c2N(C)S(C)(=O)=O)n1 [Compound I-10] . Value? ≥ 7.30

Recorded pIC50 for COc1cc(N2CCC(N3CCN(C)CC3)CC2)c(C)cc1Nc1ncc(C#N)c(Nc2ccc3nccnc3c2N(C)S(C)(=O)=O)n1 [Compound I-28] , please? 6.30 to 7.30

May I ask what pIC50 has been recorded for CCc1cc(Nc2ncc(F)c(Nc3ccc4nccnc4c3N(C)S(=O)(=O)C3CC3)n2)c(OC)cc1N1CCC(N(C)C)CC1 [Compound I-252] ? 6.30 to 7.30

# lookup: pIC50 of COc1cc(N2CCC(N(C)C)C2)c(C)cc1Nc1ncc(Br)c(Nc2ccc3nccnc3c2N(C)S(C)(=O)=O)n1 (stereo not shown) [Compound I-14] ≥ 7.30

// pIC50 lookup, key: COc1cc(N2CCC(N3CCN(C)CC3)CC2)c(C(C)C)cc1Nc1ncc(C2CC2)c(Nc2ccc3nccnc3c2N(C)S(C)(=O)=O)n1 [Compound I-291] 6.30 to 7.30

Which value of pIC50 has been reported for COc1cc(N2CCC(N3CCN(C)CC3)CC2)c(CC2CC2)cc1Nc1ncc(F)c(Nc2ccc3nccnc3c2N(C)S(=O)(=O)C2CC2)n1 [Compound I-251] in the records? 5.60 to 6.30

# get_value(readout='pIC50', item= COc1cc(N2CCC(N3CCN(C)CC3)CC2)ccc1Nc1ncc(Cl)c(Nc2ccc3nccnc3c2N(C)S(=O)(=O)C2CC2)n1 [Compound I-237] ) 6.30 to 7.30
